- TARGET OR SYSTEM: serotonin uptake site (Rattus norvegicus, UniProt P31652)
- Construct: from tissue; host or cells: rat forebrain membranes (per the assay title)
- Sequence (P31652 whole entry): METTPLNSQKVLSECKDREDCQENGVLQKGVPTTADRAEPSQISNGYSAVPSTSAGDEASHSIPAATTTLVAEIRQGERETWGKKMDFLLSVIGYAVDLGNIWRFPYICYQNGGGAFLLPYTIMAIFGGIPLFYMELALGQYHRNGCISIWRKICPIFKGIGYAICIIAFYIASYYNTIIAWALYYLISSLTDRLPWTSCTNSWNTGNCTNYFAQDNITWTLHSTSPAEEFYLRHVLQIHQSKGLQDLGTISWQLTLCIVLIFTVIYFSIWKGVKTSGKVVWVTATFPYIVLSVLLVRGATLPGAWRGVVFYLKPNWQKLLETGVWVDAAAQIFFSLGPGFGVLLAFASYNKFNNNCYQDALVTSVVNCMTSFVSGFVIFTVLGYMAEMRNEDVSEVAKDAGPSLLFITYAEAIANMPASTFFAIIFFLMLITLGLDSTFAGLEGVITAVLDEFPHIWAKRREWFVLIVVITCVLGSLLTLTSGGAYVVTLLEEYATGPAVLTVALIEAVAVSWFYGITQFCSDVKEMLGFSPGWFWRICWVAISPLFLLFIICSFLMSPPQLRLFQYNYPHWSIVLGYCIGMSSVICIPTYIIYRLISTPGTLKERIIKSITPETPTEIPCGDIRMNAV
- RUN DESCRIPTION: Serotonin uptake binding assay: [3H]citalopram binding to rat forebrain membranes
- CONDITION NOTES: at 0.1 μM
Monoamine uptake binding assays: serotonin uptake binding assay, percent block overview
READOUT TYPE: Monoamine uptake binding assays: serotonin uptake binding assay, percent block

COMPOUND: Cc1ccc(F)cc1C(CCN)c1cc(F)ccc1C
RESULT: 10^g27% at

COMPOUND: CC(CN)C(c1cccc(Cl)c1)c1cccc(Cl)c1 (stereo not drawn)
RESULT: 10^g10% at

COMPOUND: NCCC(c1cccc(F)c1)c1cccc(F)c1
RESULT: 10^g28% at

COMPOUND: C[C@H](CN)C(c1cccc(F)c1)c1cccc(F)c1
RESULT: 10^g12% at

COMPOUND: C[C@H](N)CC(c1cccc(F)c1)c1cccc(F)c1
RESULT: 10^g75% at

COMPOUND: CCNCCC(c1cccc(F)c1)c1cccc(F)c1
RESULT: 10^g14% at

COMPOUND: C[C@@H](CN)C(c1cccc(F)c1)c1cccc(F)c1
RESULT: 10^g14% at

COMPOUND: N[C@@H]1CCCC1C(c1cccc(F)c1)c1cccc(F)c1 (stereo partly drawn)
RESULT: 10^g29% at

COMPOUND: N[C@H]1CCCC1C(c1cccc(F)c1)c1cccc(F)c1 (stereo partly drawn)
RESULT: 10^g13% at

The origin of these recorded values is patent US6750244B2.
